Biological target: full length human Androgen Receptor (AR) (Homo sapiens, UniProt P10275)
Construct: transiently transfected in T225 cm^2 flasks with a full length human Androgen Receptor (AR) cDNA; expressed in transfected cells; host or cells: CV-1 cells (ATCC CCL-70), transiently transfected with AR cDNA in pcDNA3 and ARE-luciferase in pGL3
Sequence (P10275 1-920): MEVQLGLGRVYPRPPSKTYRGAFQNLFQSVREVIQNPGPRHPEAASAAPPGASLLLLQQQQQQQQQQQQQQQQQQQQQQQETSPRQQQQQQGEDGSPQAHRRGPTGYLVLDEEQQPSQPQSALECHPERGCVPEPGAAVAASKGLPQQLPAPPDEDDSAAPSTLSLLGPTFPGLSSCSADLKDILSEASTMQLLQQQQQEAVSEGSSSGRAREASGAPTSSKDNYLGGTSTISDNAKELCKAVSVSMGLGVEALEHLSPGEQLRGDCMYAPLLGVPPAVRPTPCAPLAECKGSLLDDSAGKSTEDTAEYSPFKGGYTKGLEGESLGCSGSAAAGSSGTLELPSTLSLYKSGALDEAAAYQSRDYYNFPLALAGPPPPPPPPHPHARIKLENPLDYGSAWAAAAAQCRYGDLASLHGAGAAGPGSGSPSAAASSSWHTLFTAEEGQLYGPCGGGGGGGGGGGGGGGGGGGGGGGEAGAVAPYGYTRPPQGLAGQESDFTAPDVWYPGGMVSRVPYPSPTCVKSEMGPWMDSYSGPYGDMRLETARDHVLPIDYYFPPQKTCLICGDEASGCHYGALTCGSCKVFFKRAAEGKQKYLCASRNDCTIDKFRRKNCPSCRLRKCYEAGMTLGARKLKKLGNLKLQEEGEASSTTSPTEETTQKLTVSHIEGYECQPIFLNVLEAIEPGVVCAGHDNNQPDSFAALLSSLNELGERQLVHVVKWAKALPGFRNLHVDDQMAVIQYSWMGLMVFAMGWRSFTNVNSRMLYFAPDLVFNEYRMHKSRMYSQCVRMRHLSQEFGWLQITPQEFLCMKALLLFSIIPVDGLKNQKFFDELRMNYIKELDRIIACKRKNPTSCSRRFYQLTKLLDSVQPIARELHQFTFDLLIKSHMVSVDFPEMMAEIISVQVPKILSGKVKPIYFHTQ
Assay: Androgen Receptor-Mediated Transcriptional Assay (ARE-luciferase reporter in transiently transfected CV-1 cells)
Type: cell-based
Procedure: Androgen Receptor-Mediated Transcriptional Assay Summary […] On the day of the assay, frozen cells were thawed and re-suspended in Re-suspension Media and plated at 40,000 cells/well (in 100 μL volume) in 96 well white plates and were incubated for at least 4 h at 37° C., 5% CO2. […] 50 μL of luciferase reagent was added to each well and luminescence, over 5 seconds, was measured. EC50 (half maximal effective concentration) was calculated from concentration series plots which generated sigmoidal curves. […]
Measured Endpoint: EC50 (nM)
Express your answer in nM, writing the number without its unit.

As a guide, the following entries are already answered.
{"Molecule": "C[C@@H]1CC[C@H]([C@@H](O)C(F)(F)F)N1c1ccc2c(C#N)nccc2c1", "Measurement": 0.1}
{"Molecule": "N#Cc1nccc2cc(N3CCC[C@H]3[C@@H](O)C(F)(F)F)ccc12 (single isomer, unassigned)", "Measurement": 9.1}

# EC50 (molecule: C[C@H](O)[C@H]1CC[C@@H](C)N1c1ccc2c(C#N)nccc2c1 (single isomer, unassigned) ) is 37.3

# EC50 (molecule: `C[C@@H](Nc1ccc2c(C#N)nccc2c1)[C@H](O)C(F)(F)F` ) is 5.1

# EC50 (molecule: `CC1(C)CNS(=O)(=O)N(c2ccc3c(C#N)nccc3c2)C1` ) is 0.7

# EC50 (molecule: N#Cc1nccc2cc(N3C(=O)CC[C@@H]3[C@H](O)C(F)(F)F)ccc12 (single isomer, unassigned) ) is 84.3
